# Tested on: Escherichia coli IAI1
# Method Summary: fold change of Cadaverine concentration vs plate DMSO controls (fold change (ratio)); higher = more amine produced, active = hit call of the paper (significant change in both replicates, either direction)
# Condition Parameters: incubation time: 27 h, anaerobic, 37 °C
Where a name gives a salt, the structure may show the parent alone.
Quantity Name: fold change of Cadaverine concentration
// response body must contain only the number

Query block: State the recorded fold change of Cadaverine concentration for this entry: C[C@H](CCC(=O)O)[C@H]1CC[C@H]2[C@@H]3[C@H](O)C[C@@H]4C[C@H](O)CC[C@]4(C)[C@H]3CC[C@]12C [Chenodiol] (20 µM)
Result block: 1.04

Query block: Please do the same for C[C@H](CCC(=O)O)[C@H]1CC[C@H]2[C@@H]3C(=O)C[C@@H]4CC(=O)CC[C@]4(C)[C@H]3CC(=O)[C@]12C [Dehydrocholic acid] (20 µM) as well.
Result block: 0.982

Query block: Please do the same for C[C@]12C=CC(=O)C=C1CC[C@@H]1[C@@H]2C(=O)C[C@@]2(C)[C@H]1CC[C@]2(O)C(=O)CO [Prednisone] (20 µM) as well.
Result block: 1.08

Query block: Please do the same for NC1CCN(c2nc3c(cc2F)c(=O)c(C(=O)O)cn3-c2ccc(F)cc2F)C1 (centres undefined) [Tosufloxacin hydrochloride] (20 µM) as well.
Result block: 0.192

Query block: Please do the same for NC(N)=Nc1nc(CSCCN/C=N/S(=O)(=O)c2ccc(Br)cc2)cs1 [Ebrotidine] (20 µM) as well.
Result block: 1.06

Query block: Please do the same for N=C(N)c1ccc(OCCCCCOc2ccc(C(=N)N)cc2)cc1 [Pentamidine isethionate] (20 µM) as well.
Result block: 0.825

Query block: Please do the same for CC(C)(Oc1ccc(C2CC2(Cl)Cl)cc1)C(=O)O (centres undefined) [Ciprofibrate] (20 µM) as well.
Result block: 1.03

Query block: Please do the same for CC1CS(=O)(=O)CCN1/N=C/c1ccc([N+](=O)[O-])o1 (centres undefined) [Nifurtimox] (20 µM) as well.
Result block: 0.974

Query block: Please do the same for CC(C)NCC(O)COc1ccc(COCCOC(C)C)cc1 (centres undefined) [Bisoprolol hemifumarate] (20 µM) as well.
Result block: 0.99

Query block: Please do the same for C[C@]1(Cn2ccnn2)[C@H](C(=O)O)N2C(=O)C[C@H]2S1(=O)=O [Tazobactam] (20 µM) as well.
Result block: 0.989

Query block: Please do the same for CCN(CC)CCNC(=O)COc1ccc(OC)cc1 [Mefexamide hydrochloride] (20 µM) as well.
Result block: 1.05

Query block: Please do the same for CC(C)(c1ccc(O)cc1)c1ccc(O)cc1 [Bisphenol A] (20 µM) as well.
Result block: 0.991

Query block: Please do the same for NC(=O)C1CO1 (centres undefined) [Glycidamide] (20 µM) as well.
Result block: 1.02

Query block: Please do the same for CC(N)CCCC(C)(C)O (centres undefined) [Heptaminol hydrochloride] (20 µM) as well.
Result block: 1.04

Query block: Please do the same for COc1cc(NC(C)CCCN)c2ncccc2c1 (centres undefined) [Primaquine diphosphate] (20 µM) as well.
Result block: 1

Query block: Please do the same for Cc1cccc(C)c1OCC(=O)N[C@@H](Cc1ccccc1)[C@@H](O)C[C@H](Cc1ccccc1)NC(=O)[C@H](C(C)C)N1CCCNC1=O [Lopinavir] (20 µM) as well.
Result block: 1.02

Query block: Please do the same for CC(C)(C)NCC(O)c1cc(O)cc(O)c1 (centres undefined) [Terbutaline hemisulfate] (20 µM) as well.
Result block: 0.932

Query block: Please do the same for CC(C)Nc1cccnc1N1CCN(C(=O)c2cc3cc(NS(C)(=O)=O)ccc3[nH]2)CC1 [Delavirdine] (20 µM) as well.
Result block: 1.04

Query block: Please do the same for CC1(C)O[C@@H]2C[C@H]3[C@@H]4C[C@H](F)C5=CC(=O)CC[C@]5(C)[C@H]4[C@@H](O)C[C@]3(C)[C@]2(C(=O)CO)O1 [Flurandrenolide] (20 µM) as well.
Result block: 0.954

Query block: Please do the same for CN1CCCN(C(c2ccccc2)c2ccc(Cl)cc2)CC1 (centres undefined) [Homochlorcyclizine dihydrochloride] (20 µM) as well.
Result block: 0.885

Query block: Please do the same for COc1cccc(CCc2ccccc2OCC(CN(C)C)OC(=O)CCC(=O)O)c1 (centres undefined) [Sarpogrelate hydrochloride] (20 µM) as well.
Result block: 1.03

Query block: Please do the same for COc1ccccc1N1CCN(CCCNc2cc(=O)n(C)c(=O)n2C)CC1 [Urapidil hydrochloride] (20 µM) as well.
Result block: 1.03

Query block: Please do the same for OC(CCN1CCCCC1)(c1ccccc1)C1CC2C=CC1C2 (centres undefined) [Biperiden hydrochloride] (20 µM) as well.
Result block: 0.899

Query block: Please do the same for Oc1c(Br)cc(Br)c2cccnc12 [Broxyquinoline] (20 µM) as well.
Result block: 1.2

Query block: Please do the same for CC[C@H](C)[C@H](NC(=O)[C@H](Cc1ccc(O)cc1)NC(=O)[C@@H](NC(=O)[C@H](CCCN=C(N)N)NC(=O)[C@@H](N)CC(=O)O)C(C)C)C(=O)N[C@@H](Cc1cnc[nH]1)C(=O)N1CCC[C@H]1C(=O)N[C@@H](Cc1ccccc1)C(=O)O [Angiotensin II (Human) Trifluoroacetic acid salt] (20 µM) as well.
Result block: 0.934

Query block: Please do the same for CC(C)COC(=O)OCN1C(=O)CN(CCN2CC(=O)N(COC(=O)OCC(C)C)C(=O)C2)CC1=O [Sobuzoxane] (20 µM) as well.
Result block: 0.988

Query block: Please do the same for CNCCC(Oc1ccccc1OC)c1ccccc1 (centres undefined) [Nisoxetine hydrochloride] (20 µM) as well.
Result block: 1.18

Query block: Please do the same for Nc1nc(CC(=O)Nc2ccc(CCNC[C@H](O)c3ccccc3)cc2)cs1 [Mirabegron] (20 µM) as well.
Result block: 1.06

Query block: Please do the same for CCCCc1ccc2[nH]c(NC(=O)OC)nc2c1 [Parbendazole] (20 µM) as well.
Result block: 0.981
